The reported numbers originate from ChEMBL document CHEMBL4020740.

# Experiment notes: Antiproliferative activity against human KBVIN cells by sulforhodamine B assay
# Assay type: functional, cell-based
Metric name: IC50 (µM)
Reply numerically in µM, unit not repeated.

The compound listed as CCC1=C(OC)C(CC)(CC)c2oc(-c3csc4cc(NC(=O)OC(C)(C)C)ccc34)cc(=O)c2C1=O shows IC50 equal to 5.02

Reported IC50 ( CC(=O)O[C@H]1C(=O)[C@@]2(C)[C@H]([C@H](OC(=O)c3ccccc3)[C@]3(O)C[C@H](OC(=O)[C@H](O)[C@@H](NC(=O)c4ccccc4)c4ccccc4)C(C)=C1C3(C)C)[C@]1(OC(C)=O)CO[C@@H]1C[C@@H]2O ) = 2.04

Looking up CCC1=C(OC)C(CC)(CC)C(O)=C(C(=O)/C=C/c2csc3ccc(NC(=O)OC(C)(C)C)cc23)C1=O , I found its IC50 recorded as 5.45
